Assign Yes whenever logP does not fall below 2; assign No whenever it does.

[
  {
    "SMILES": "COc1cc(Cl)c(N=C2NCCN2)c(Cl)c1",
    "CAT": "No"
  },
  {
    "SMILES": "Cc1ccc(N=C2NCCN2)c(C)c1",
    "CAT": "No"
  },
  {
    "SMILES": "Cc1ccccc1N=C1NCCN1",
    "CAT": "No"
  },
  {
    "SMILES": "CCc1cccc(CC)c1N=C1NCCN1",
    "CAT": "Yes"
  },
  {
    "SMILES": "Clc1ccccc1N=C1NCCN1",
    "CAT": "No"
  },
  {
    "SMILES": "Cc1cc(C)c(N=C2NCCN2)c(C)c1",
    "CAT": "Yes"
  },
  {
    "SMILES": "Cc1cc(Cl)c(NC2=NCCN2)c(Cl)c1",
    "CAT": "No"
  },
  {
    "SMILES": "Cc1cc(C)c(N=C2NCCN2)c(Cl)c1",
    "CAT": "Yes"
  },
  {
    "SMILES": "Cc1cc(Br)cc(C)c1N=C1NCCN1",
    "CAT": "Yes"
  },
  {
    "SMILES": "Cc1cc(Cl)cc(Cl)c1N=C1NCCN1",
    "CAT": "Yes"
  },
  {
    "SMILES": "Brc1cc(Br)c(N=C2NCCN2)c(Br)c1",
    "CAT": "Yes"
  },
  {
    "SMILES": "O=[N+]([O-])c1cc(Cl)c(N=C2NCCN2)c(Cl)c1",
    "CAT": "Yes"
  },
  {
    "SMILES": "Clc1cc(Br)cc(Cl)c1N=C1NCCN1",
    "CAT": "Yes"
  }
]

Data provenance is the SangsterLogP compilation.
